Tested on: Plasmodium falciparum
Experiment: GSK_TCMDC: Inhibition of Plasmodium falciparum 3D7 in whole erythrocytes, using parasite LDH activity as an index of growth.
Format: functional, organism-based
Conditions: Plasmodium falciparum, 3D7
Recorded XC50 values for a group of compounds are listed next.
A number alone suffices; assume nM.

For the compound O=S(=O)(Nc1ccc(CCN2CCCCC2CCN2CCCC2)cc1)c1ccc(-c2ccccc2)cc1 (stereo unspecified) , give its measured XC50 value.
926

Output XC50 of COc1ccccc1N1CCN(C(C(=O)NCc2cccc(F)c2)c2ccc(C)cc2)CC1 (stereo unspecified)
892

Entry "CCN1CCC(N(Cc2ccc(-c3ccc(Cl)cc3)cc2)C(=O)Cn2c(CCc3cccc(F)c3F)cc(=O)c3ccccc32)CC1" needs its XC50 filled in; supply it.
703

Give the reported value of XC50 for this record: O=C(Cc1ccccc1)NC1CCN(c2ccnc3cc(Cl)ccc23)C1 (stereo unspecified)
805

Tell me XC50 reported for "CCOC(=O)c1ccc(N2CCN(c3cc(Cl)ccc3C)CC2)c(NC(=O)Nc2ccc(Cl)c(Cl)c2)c1"
584

Answer with the recorded XC50 of "Cc1cc(N[C@@H](Cc2ccccc2)C(=O)NCc2cccs2)nc(NCCOc2ccccc2)n1" only.
1480
